Biological target: hSERT (Homo sapiens)
Construct: expressed in transfected cells; host or cells: HEK-293 derived cell line, stably transfected; membrane preparation
Experiment: hSERT binding assay (Assay 1)
Details: ratio of SERT Ki to NET Ki (binding)
Lab note: anything with SERT Ki/NET Ki at or over 4 counts as Satisfied; the rest go in Not satisfied.

Cc1ccc(F)c(OC(c2cc(F)cc(F)c2)C2CCNC2)c1Cl (stereo not shown) [41-29] :: Not satisfied
Fc1cc(F)cc(C(Oc2c(F)ccc(F)c2Cl)C2CCNC2)c1 (stereo not shown) :: Satisfied
NC(=O)c1cccc(C(Oc2c(F)ccc(F)c2Cl)C2CCNC2)c1 (stereo not shown) [41-36] :: Satisfied
Cc1ccc(Cl)c(OC(c2ccccc2)C2CCNC2)c1F (stereo not shown) :: Satisfied
Fc1cc(F)c(F)c(O[C@H](c2ccccc2)[C@@H]2CCNC2)c1 :: Not satisfied

Req: Evaluate Clc1cc(Cl)cc(OC(c2ccccc2Cl)C2CCNC2)c1 (stereo not shown) : SERT Ki/NET Ki at minimum 4?
Resp: Not satisfied

Req: How about this molecule: COc1cc(Cl)c(F)cc1OC(c1ccccc1)C1CCNC1 (stereo not shown)
Resp: Not satisfied

Req: Another molecule to check: `Fc1cc(F)cc([C@@H](Oc2cc(Cl)cc(Cl)c2)[C@@H]2CCNC2)c1`
Resp: Not satisfied

Req: // repeat for `Cc1ccc(Cl)c(O[C@@H](c2cc(F)cc(F)c2)[C@H]2CCNC2)c1Cl` and report
Resp: Not satisfied

----------
Target: hSERT (Homo sapiens)
Construct: expressed in transfected cells; host or cells: HEK-293 derived cell line, stably transfected; membrane preparation
Assay: hSERT binding assay (Assay 1)
Conditions: ratio of SERT Ki to NET Ki (binding)
Attribute Measured: SERT Ki/NET Ki

Cc1ccc(F)c(O[C@@H](c2ccccc2)[C@H]2CCNC2)c1Cl :: 1.3
Cc1ccc(F)c(O[C@H](c2ccccc2)[C@@H]2CCNC2)c1F :: 0.4
Cc1ccc(Cl)c(O[C@@H](c2cc(F)cc(F)c2)[C@@H]2CCNC2)c1Cl (racemic) :: 0.2
Fc1cc(F)cc(C(Oc2cc(F)c(F)cc2F)C2CCNC2)c1 (stereo not shown) :: 32
Cc1ccc(Cl)c(OC(c2cc(F)cc(F)c2)C2CCNC2)c1Cl (racemic) :: 1.3

Req: Fill in: SERT Ki/NET Ki of COc1ccc(F)c(Cl)c1OC(c1ccccc1)C1CCNC1 (stereo not shown) is ___
Resp: 0.1

----------
Biological target: hNET (Homo sapiens, UniProt P23975)
Construct: expressed in transfected cells; host or cells: HEK-293 derived cell line, stably transfected; membrane preparation
Sequence (P23975 whole entry): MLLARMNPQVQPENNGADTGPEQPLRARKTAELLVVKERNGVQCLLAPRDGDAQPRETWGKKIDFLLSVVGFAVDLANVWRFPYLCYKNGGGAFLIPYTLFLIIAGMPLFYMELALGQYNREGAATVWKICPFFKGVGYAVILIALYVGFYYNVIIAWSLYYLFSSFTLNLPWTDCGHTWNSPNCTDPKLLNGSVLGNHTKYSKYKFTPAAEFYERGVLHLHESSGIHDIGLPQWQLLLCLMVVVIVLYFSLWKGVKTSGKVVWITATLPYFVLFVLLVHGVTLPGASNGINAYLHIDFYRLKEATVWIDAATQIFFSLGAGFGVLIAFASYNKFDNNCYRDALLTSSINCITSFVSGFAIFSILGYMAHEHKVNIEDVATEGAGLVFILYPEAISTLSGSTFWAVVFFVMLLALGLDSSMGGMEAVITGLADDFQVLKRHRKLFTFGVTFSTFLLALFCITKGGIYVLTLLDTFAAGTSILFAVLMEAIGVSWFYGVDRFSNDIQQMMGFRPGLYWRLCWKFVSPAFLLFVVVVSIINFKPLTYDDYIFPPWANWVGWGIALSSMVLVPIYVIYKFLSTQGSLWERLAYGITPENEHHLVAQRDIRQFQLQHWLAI
Experiment: hNET binding assay (Assay 1)
Settings: membranes of HEK-293 cells expressing hNET, 1.0 nM 3H-nisoxetine; read-out: NET pKi (converted)
Attribute Measured: Ki (nM)
Give the number; nM is assumed, so skip it.

c1ccc(Oc2cccc(OC(c3ccccc3)C3CCNC3)c2)cc1 (stereo not drawn) :: 1.26
Fc1cccc(C(Oc2cccc(Cl)c2)C2CCNC2)c1 (stereo not drawn) :: 7.94
Cc1c(Cl)cccc1OC(c1ccccc1)C1CCNC1 (stereo not drawn) [Compound 25-21] :: 1.26
COc1ccccc1O[C@H](c1cccc(Cl)c1)[C@@H]1CCNC1 (racemic) :: 2.51
CCC(=O)c1ccccc1OC(c1ccccc1)C1CCNC1 (stereo not drawn) [Compound 19-27] :: 2

Req: Ki lookup needed for c1ccc(OC(c2ccccc2)C2CCNC2)cc1 (stereo not drawn) , thanks.
Resp: 6.31

Req: // repeat for `Cc1c(F)cccc1O[C@@H](c1ccccc1)[C@H]1CCNC1` and report
Resp: 0.794

Req: Query COc1ccccc1O[C@@H](c1cc(C)cc(F)c1)[C@H]1CCNC1 (racemic) next
Resp: 1.26

Req: Repeat for the following compound: Clc1cccc(C(Oc2ccccc2Cl)C2CCNC2)c1 (stereo not drawn)
Resp: 2.51

----------
Ki overview
Target: hNET (Homo sapiens)
Construct: expressed in transfected cells; host or cells: HEK-293 derived cell line, stably transfected; membrane preparation
Experiment: hNET binding assay (Assay 1)
Details: membranes of HEK-293 cells expressing hNET, 1.0 nM 3H-nisoxetine; read-out: NET pKi (converted)

CC(=O)c1c(F)cccc1OC(c1ccccc1)C1CCNC1 (stereo not drawn) :: 3.16 nM
COc1ccccc1OC(c1ccccc1Cl)C1CCNC1 (stereo not drawn) [Compound 20-16] :: 1.26 nM
FC(F)(F)Oc1ccccc1OC(c1ccccc1)C1CCNC1 (stereo not drawn) :: 1.26 nM
Cc1cccc(O[C@@H](c2ccccc2)[C@H]2CCNC2)c1C :: 2.51 nM
CSc1ccccc1OC(c1ccccc1)C1CCNC1 (stereo not drawn) [Compound 19-29] :: 0.631 nM

Moving on to the next molecule.
Req: Which measured Ki value corresponds to Fc1c(Cl)cccc1OC(c1ccccc1)C1CCNC1 (stereo not drawn) ?
Resp: 0.794 nM

----------
Biological target: hNET (Homo sapiens)
Construct: expressed in transfected cells; host or cells: HEK-293 derived cell line, stably transfected; membrane preparation
Assay: hNET binding assay (Assay 1)
Details: hNET binding; read-out: NET pKi (converted)
Attribute Measured: Ki (nM)
Form entry: value (nM) — number only.

COc1ccc(F)c(Cl)c1OC(c1ccccc1)C1CCNC1 (stereo not shown) [40-23] :: 3.16
Fc1cc(Cl)cc(C(Oc2cc(Cl)cc(Cl)c2)C2CCNC2)c1 (stereo not shown) [35-18] :: 5.01

Turning now to a further record.
Req: Report Ki for Fc1c(Cl)ccc(OC(c2ccccc2)C2CCNC2)c1Cl (stereo not shown) [36-10] please.
Resp: 3.16

----------
Each record here notes measured SERT Ki/NET Ki.
Target: hSERT (Homo sapiens)
Construct: expressed in transfected cells; host or cells: HEK-293 derived cell line, stably transfected; membrane preparation
Assay: hSERT binding assay (Assay 1)
Conditions: ratio of binding Ki at hSERT to Ki at hNET, rounded off to the nearest tenth
Hey, just send me the number, nothing else.

c1ccc(COc2ccccc2OC(c2ccccc2)C2CCNC2)cc1 (stereo not drawn) :: 3.2
COc1ccccc1O[C@@H](c1cc(C)cc(F)c1)[C@H]1CCNC1 (racemic) :: 7.9
Fc1c(Cl)cccc1OC(c1ccccc1)C1CCNC1 (stereo not drawn) [Compound 25-3] :: 0.5

Req: Query for hSERT (Homo sapiens): what SERT Ki/NET Ki does the record show for Clc1c(Oc2ccccc2)cccc1OC(c1ccccc1)C1CCNC1 (stereo not drawn) ?
Resp: 0.2

Req: Also need FC(F)(F)Oc1ccccc1OC(c1ccccc1)C1CCNC1 (stereo not drawn) , thanks.
Resp: 20

Req: Another molecule: CC(=O)c1c(F)cccc1OC(c1ccccc1)C1CCNC1 (stereo not drawn)
Resp: 10

Req: Follow-up entry: COC(=O)c1c(F)cccc1OC(c1ccccc1)C1CCNC1 (stereo not drawn)
Resp: 100

Req: Now give it for `Fc1c(Cl)cccc1O[C@H](c1ccccc1)[C@@H]1CCNC1` too.
Resp: 0.1

Req: Next: CC(C)c1ccccc1OC(c1ccccc1)C1CCNC1 (stereo not drawn)
Resp: 16

Req: Again, but for CCOc1ccccc1OC(c1ccccc1)C1CCNC1 (stereo not drawn)
Resp: 32

Req: Please do the same for Ic1ccccc1OC(c1ccccc1)C1CCNC1 (stereo not drawn) as well.
Resp: 0.6

----------
Molecular target: hSERT (Homo sapiens, UniProt P31645)
Construct: expressed in transfected cells; host or cells: HEK-293 derived cell line, stably transfected; membrane preparation
Sequence (P31645 whole entry): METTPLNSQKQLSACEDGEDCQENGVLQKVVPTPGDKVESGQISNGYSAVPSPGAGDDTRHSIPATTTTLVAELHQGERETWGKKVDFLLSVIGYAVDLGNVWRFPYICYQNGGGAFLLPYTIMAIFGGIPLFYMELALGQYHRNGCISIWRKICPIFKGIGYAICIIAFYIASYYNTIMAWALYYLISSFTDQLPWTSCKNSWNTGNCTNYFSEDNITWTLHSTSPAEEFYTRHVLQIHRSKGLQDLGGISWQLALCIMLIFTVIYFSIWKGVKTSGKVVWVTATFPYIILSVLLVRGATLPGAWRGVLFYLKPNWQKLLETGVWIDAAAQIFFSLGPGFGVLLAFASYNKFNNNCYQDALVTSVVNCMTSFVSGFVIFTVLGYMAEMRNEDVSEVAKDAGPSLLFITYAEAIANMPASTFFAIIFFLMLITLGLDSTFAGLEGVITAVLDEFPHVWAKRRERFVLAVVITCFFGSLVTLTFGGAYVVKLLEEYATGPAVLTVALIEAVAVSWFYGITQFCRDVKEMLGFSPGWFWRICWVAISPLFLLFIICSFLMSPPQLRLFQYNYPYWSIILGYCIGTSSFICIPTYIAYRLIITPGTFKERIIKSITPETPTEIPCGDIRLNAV
Assay: hSERT binding assay (Assay 1)
Details: ratio of SERT Ki to NET Ki (binding)
SERT Ki/NET Ki overview

Solved entries:
Cc1ccc(F)c(OC(c2cc(F)cc(F)c2)C2CCNC2)c1F (centres unmarked) :: 1.3
COc1ccc(F)c(OC(c2ccccc2)C2CCNC2)c1F (centres unmarked) :: 6.3
Cc1ccc(Cl)c(O[C@H](c2cc(F)cc(F)c2)[C@@H]2CCNC2)c1F :: 0.8
Cc1ccc(F)c(O[C@@H](c2ccccc2)[C@H]2CCNC2)c1F :: 20

With those in mind, consider the next molecule.
Req: For the record `Fc1cc(F)cc([C@H](Oc2c(F)ccc(F)c2F)[C@H]2CCNC2)c1` , what value of SERT Ki/NET Ki is listed for hSERT (Homo sapiens, UniProt P31645)?
Resp: 100

----------
Biological target: hSERT (Homo sapiens, UniProt P31645)
Construct: expressed in transfected cells; host or cells: HEK-293 derived cell line, stably transfected; membrane preparation
Test: hSERT binding assay (Assay 1)
Details: ratio of binding Ki at SERT to Ki at NET; the tables list only compounds with a ratio in the range 0.1-100
Attribute Measured: SERT Ki/NET Ki
Could you keep your reply to the number by itself?

Req: For the compound shown here, `Fc1cc(F)cc([C@H](Oc2c(Cl)c(F)cc(F)c2Cl)[C@H]2CCNC2)c1` , give the reported SERT Ki/NET Ki.
Resp: 10

Req: Try this compound too: Fc1cc(F)c(Cl)c(OC(c2ccccc2Cl)C2CCNC2)c1Cl (stereo not shown)
Resp: 0.2

Req: Another: NC(=O)c1cccc(C(Oc2c(F)cc(F)cc2F)C2CCNC2)c1 (stereo not shown)
Resp: 3.2

Req: Now try Fc1cc(F)cc(C(Oc2c(Cl)c(F)cc(F)c2Cl)C2CCNC2)c1 (stereo not shown) .
Resp: 2

Req: What would you report for `Fc1c(F)c(F)c(O[C@@H](c2ccccc2)[C@H]2CCNC2)c(F)c1F` ?
Resp: 2.5

Req: Next compound: `Fc1cc(Cl)c(O[C@@H](c2ccccc2)[C@H]2CCNC2)c(Cl)c1`
Resp: 0.5

Req: What do we get for Fc1cc(F)c(Cl)c(OC(c2ccccc2)C2CCNC2)c1F (stereo not shown) [47-6] ?
Resp: 6.3

Req: Lookup `Fc1cc(Cl)cc(F)c1O[C@@H](c1ccccc1)[C@H]1CCNC1`
Resp: 0.1

Req: Another compound: `N#Cc1cccc([C@H](Oc2c(F)cc(F)cc2F)[C@H]2CCNC2)c1`
Resp: 3.2

Req: Now consider `CCc1cc(F)cc(F)c1O[C@@H](c1ccccc1)[C@H]1CCNC1` .
Resp: 0.3

Req: Then this compound: COC(=O)c1c(F)c(F)c(F)c(F)c1OC(c1ccccc1)C1CCNC1 (stereo not shown)
Resp: 0.4

Req: Note, next up: Fc1cc(F)c(Cl)c(OC(c2ccccc2)C2CCNC2)c1F (stereo not shown) [47-7]
Resp: 0.4

Req: Next compound up: `Fc1cc(F)cc([C@H](Oc2c(F)cc(F)cc2F)[C@H]2CCNC2)c1`
Resp: 7.9

The measurements presented in this section are drawn from patent US7888386B2.
